Hello, the source for this data is the supplement of paper PMC4862054, in case you need it.

In this section, each of the compounds is paired with its reported normalised viability.
Test system: CAL-148
EXPERIMENTAL PROTOCOL: normalised viability (% of control), CellTiter-Blue; higher = more viable cells (about 100 = DMSO control)
CONDITIONS USED: incubation time: 72 h

| COMPOUND | normalised viability [%] |
| --- | --- |
| CO[C@H]1C[C@@H]2CC[C@@H](C)[C@@](O)(O2)C(=O)C(=O)N2CCCC[C@H]2C(=O)O[C@H]([C@H](C)C[C@@H]2CC[C@@H](O)[C@H](OC)C2)CC(=O)[C@H](C)/C=C(\C)[C@@H](O)[C@@H](OC)C(=O)[C@H](C)C[C@H](C)/C=C/C=C/C=C/1C [Sirolimus] (300 nM) | 39.1 |
| NC(=O)c1cccc2cn(-c3ccc([C@@H]4CCCNC4)cc3)nc12 [MK-4827] (3000 nM) | 73.5 |
| O=C(O)CC[C@H]1CC[C@@](c2cc(F)ccc2F)(S(=O)(=O)c2ccc(Cl)cc2)CC1 [MK-0752] (300 nM) | 95.3 |
| CCN(CC)CCOc1ccc(C(=C(Cl)c2ccccc2)c2ccccc2)cc1 [Clomifene] (3000 nM) | 93.3 |

====

In this section, each of the compounds is paired with its reported normalised viability.
System: CAL-51
EXPERIMENTAL PROTOCOL: normalised viability (% of control), CellTiter-Blue; higher = more viable cells (about 100 = DMSO control)
CONDITIONS USED: incubation time: 72 h

| COMPOUND | TESTED SYSTEM | normalised viability [%] |
| --- | --- | --- |
| Cc1c(N)nc([C@H](CC(N)=O)NC[C@H](N)C(N)=O)nc1C(=O)N[C@H](C(=O)N[C@H](C)[C@@H](O)[C@H](C)C(=O)N[C@H](C(=O)NCCc1nc(-c2nc(C(=O)NCCC[S+](C)C)cs2)cs1)[C@@H](C)O)[C@@H](OC1OC(CO)C(O)C(O)C1OC1OC(CO)C(O)C(OC(N)=O)C1O)c1cnc[nH]1 (stereo partly drawn) [Bleomycin] (300 nM) | CAL-51 | 90.9 |
| CCN(CC)CCOc1ccc(C(=C(Cl)c2ccccc2)c2ccccc2)cc1 [Clomifene] (300 nM) | CAL-51 | 91.6 |
| Cn1nnc2c(C(N)=O)ncn2c1=O [Temozolomide] (300 nM) | CAL-51 | 88.4 |

====

Tested on: MCF-10A
EXPERIMENTAL PROTOCOL: normalised response (% of control), CellTox Green; higher = less cell death (100 = DMSO, 0 = benzethonium chloride kill control)
CONDITIONS USED: incubation time: 72 h
In this section, each of the compounds is paired with its reported normalised response.

| COMPOUND | normalised response |
| --- | --- |
| CC(C)C[C@H](NC(=O)[C@H](CCc1ccccc1)NC(=O)CN1CCOCC1)C(=O)N[C@@H](Cc1ccccc1)C(=O)N[C@@H](CC(C)C)C(=O)[C@@]1(C)CO1 [Carfilzomib] (1000 nM) | -56% |
| CCCc1cc(C)[nH]c(=O)c1CNC(=O)c1cc(-c2ccnc(N3CCN(C)CC3)c2)cc2c1cnn2C(C)C [GSK343] (100 nM) | 85.8% |
| NC1(c2ccc(-c3nc4ccn5c(=O)[nH]nc5c4cc3-c3ccccc3)cc2)CCC1 [MK-2206] (1000 nM) | 104% |
| CC[C@H](CC#N)OC(=O)N[C@@H](C)c1cccc(NC(=O)Nc2ccc(-c3cnco3)c(OC)c2)c1 [AVN944] (1000 nM) | 112% |
